system: EKVX NSCLC; assay: NCI tumour cell line growth inhibition, 48 h
measured property: TGI

compound	target	observed
O=C(c1cc2c(C(F)(F)F)onc2c2ccccc12)C(F)(F)F	EKVX NSCLC	> 33.3 µM
N#Cc1ccc(-c2nc3ccc(Cl)cc3[nH]2)cc1	EKVX NSCLC	> 100 µM
CCOC(=O)C#Cc1ccc([N+](=O)[O-])cc1	EKVX NSCLC	4.71 µM
O=C1/C(=C/c2ccccc2)CN(CCC(=O)N2C/C(=C\c3ccccc3)C(=O)/C(=C/c3ccccc3)C2)C/C1=C\c1ccccc1	EKVX NSCLC	67.5 µM
COC(=O)c1ccc(CCc2cc(O)c(Br)cc2O)cc1	EKVX NSCLC	31.3 µM
CC1=C2C(=O)C(C)(C)C=C2C(=O)[C@](C)(O)C12CC2	EKVX NSCLC	> 1 µM
Cc1ccc(/C=N/Nc2nncc3ccccc23)s1	EKVX NSCLC	> 100 µM
N=C1C(c2nc3ccccc3s2)=C(O)CN1c1ccc(Cl)cc1Cl	EKVX NSCLC	85.5 µM
CSc1nncc2[nH]cnc12	EKVX NSCLC	> 100 µM
COc1ccc(-c2nc(N)c3ncn(C4OC(CO)C(O)C4O)c3n2)cc1 (configuration not stated)	EKVX NSCLC	> 100 µM
Nc1nc(N)c2nc(-c3ccco3)cnc2n1	EKVX NSCLC	> 100 µM
CC1Cc2c(N)nc(N3CCOCC3)nc2NC1=O (configuration not stated)	EKVX NSCLC	> 100 µM

###

test system: HCT-15 colon; assay: NCI tumour cell line growth inhibition, 48 h

compound	GI50
CCOC(=O)c1c(C)[nH]c(/C=C2\N=C(c3ccc[nH]3)C=C2OC)c1C	< 10 nM
Cc1ccc2c(N/N=C\c3ccco3)cc(C)nc2n1	2890 nM
CCCCNC(=O)Oc1ccc2c(=O)c3sc4c(=O)c5ccccc5c(=O)c4c3c(=O)c2c1	160 nM
CC1OC(O[C@H]2/C=C/C=C/C=C/C=C/C=C/C=C/C=C/[C@H](C)[C@@H](O)[C@@H](C)[C@H](C)OC(=O)C[C@H](O)C[C@H](O)CC[C@@H](O)[C@H](O)C[C@H](O)C[C@]3(O)C[C@H](O)[C@@H](C(=O)O)[C@H](C2)O3)C(O)C(N)C1O (stereo partly drawn)	44700 nM
COc1ccccc1N1CCN(C(=O)c2ccc(NS(=O)(=O)c3cccc4cccnc34)cc2)CC1	> 100000 nM
COc1cc(C)[nH]c(=O)c1CN1CCc2c(Cl)cc([C@H](OC)C3COC3)c(Cl)c2C1=O	> 100000 nM
NC(=O)c1cc(Cl)ccc1NC(=O)c1ccccc1-c1ccccc1	550 nM
CN(C)Cc1cccc(CN(C)C)[c]1[Sn]([Br])([c]1ccccc1)[c]1ccccc1	14500 nM

###

test system: HCT-15 colon; assay: NCI tumour cell line growth inhibition, 48 h
Where a SMILES comes first, the peptide text is derived from it. [ ]: non-standard residue; d: D form. The star is where a group is joined. ξ: configuration not given here. Propanoyl(3-(4-MeO-Ph)) = COc1ccc(CCC(=O)*)cc1; Thr(3ξ) = CC(O)[C@H](N)C(=O)O; dNMeL = CN[C@H](CC(C)C)C(=O)O; Boc = CC(C)(C)OC(=O)*; OBn = c1ccc(CO*)cc1; ξLac = CC(O)C(=O)O

compound	TGI
COc1ccc(-c2nc(N)c3ncn(C4OC(CO)C(O)C4O)c3n2)cc1 (centres undefined)	> 100 µM
COc1cc2c(=O)n(CCCn3ccnc3)c3c4cc5c(cc4ccc3c2cc1OC)OCO5	> 100 µM
CC(C)Cc1ccc(C(C)/C=C2\CCC(CN3CCCC3)C2=O)cc1 (centres undefined)	13.3 µM
CC(C)NC(=O)OCc1c(COC(=O)NC(C)C)c(-c2ccc[n+](COC(=O)C3CC3)c2)n2c1CCC2	> 100 µM
OCCN=C1c2ccccc2C2C(c3ccccc31)C1c3ccccc3C(=NCCO)c3ccccc3C21 (centres undefined)	63.9 µM
Cc1cccc2c1O/C(=C\c1ncc([N+](=O)[O-])n1C)C2=O	0.318 µM
Cc1ccc(Nc2nc(=O)[nH]c(=O)[nH]2)cc1N=[N+]=[N-]	> 100 µM
CCC(c1ccc(OC)cc1)C(CC)c1ccc(O)c(CN2CCCC2)c1 (centres undefined)	10.7 µM
Cc1ccc(S(=O)(=O)/N=C(\[O-])C2=C(c3ccccc3)NN(C)c3nc4cccc[n+]4nc32)cc1	> 100 µM
O=C(CN1CCOCC1)CC(O)(C(F)(F)F)C(F)(F)F	> 100 µM
O=C(O)CN(c1ccccc1)S(=O)(=O)c1ccc(Cl)cc1	> 100 µM
NNC(=O)CCC(=O)Nc1ccc(Cl)cc1Cl	> 100 µM
CN(C)CCCN=c1cc2c(=O)n(CCCN(C)C)c(=O)c3c(NCCCN(C)C)cc4c(O)n(CCCN(C)C)c(=O)c1c4c3-2	46.4 µM
O=C(OCC1CCCN2CCCCC12)c1ccncc1 (centres undefined)	> 100 µM
COc1ccc(CCC(=O)OC(C)[C@H](NC(=O)[C@@H](CC(C)C)N(C)C(=O)[C@@H]2CCCN2C(=O)C(C)O)C(=O)OCc2ccccc2)cc1 (some centres undefined) (H-[ξLac]P[dNMeL][Thr(3ξ)](Propanoyl(3-(4-MeO-Ph)))-OBn)	> 100 µM
COc1ccc(CCc2ccc(O)c(C(=O)O)c2)cc1OC	> 100 µM
COc1cc2c(cc1OC)C(Cc1ccccc1CCCl)=NCC2	> 100 µM
CC(=O)O[C@H]1CC[C@@]2(C)C(=CC[C@@H]3[C@@H]2CC[C@]2(C)c4c(cc(C#N)c(=N)n4C(C)=O)C[C@@H]32)C1	29.4 µM
COc1cc2ccnc3c2c(c1OC)CC1CC(O)C(OC)CC31 (centres undefined)	> 100 µM
CC1=C(C(=O)NCC(C)O)CC(C(=O)NCC(C)O)=C(C)N1 (centres undefined)	> 100 µM
COC1OC(CBr)C(OC(c2ccccc2)(c2ccccc2)c2ccccc2)C(OC(c2ccccc2)(c2ccccc2)c2ccccc2)C1OC(c1ccccc1)(c1ccccc1)c1ccccc1 (centres undefined)	> 100 µM
CCN(CC)CCOC(=O)/C(=C/c1ccc(OC)cc1)c1cc(OC)c(OC)c(OC)c1	> 100 µM
O=C1/C(=C/c2ccccc2)CN(CCC(=O)N2C/C(=C\c3ccccc3)C(=O)/C(=C/c3ccccc3)C2)C/C1=C\c1ccccc1	45.1 µM
CN(C)Cc1cccc(CN(C)C)[c]1[Sn]([Br])([c]1ccccc1)[c]1ccccc1	29.4 µM
ClC1(c2ccccc2)c2ccc(Br)cc2-c2cc(Br)ccc21	33.8 µM
NCCCc1c(-c2ccccc2)nc(N)[nH]c1=O	> 100 µM
N/C(=N\c1nc2ccccc2s1)NC(=O)Nc1ccccc1Cl	18.9 µM
O[C@H]1[C@H](O)[C@H](O)CN2CCC[C@@H](O)[C@H]12	> 100 µM
NCCCn1c2c(c3cc4c(cc3c1=O)OCO4)C(=O)c1ccccc1-2	1.94 µM
Oc1cccc(Cn2c(-c3cccc(O)c3O)nc3ccccc32)c1O	14.9 µM
O=C(O)c1cc(O)c2c(c1)Cc1cccc(O)c1C2=O	33 µM
COc1cc([C@@H]2c3cc4c(cc3[C@H](OC(C)=O)[C@H]3COC(=O)[C@H]23)OCO4)cc(OC)c1OC	> 100 µM
CCOCC(NC(=O)C(CC(C)C)NC(=O)OC(C)(C)C)C(N)=O (stereo not drawn) (Boc-Leu-Ser(Et)-NH2; configuration not given here)	> 100 µM
Cc1ccc2cccc3c2c1CC1(C3=O)S(=O)(=O)OCCOS1(=O)=O	> 100 µM
N=C1C(c2nc3ccccc3s2)=C(O)CN1c1ccc(Cl)cc1Cl	22 µM
CC1Cc2c(N)nc(N3CCOCC3)nc2NC1=O (centres undefined)	> 100 µM
C/C=C1\C(=O)O[C@@H]2C1C[C@@H]1O[C@H]2[C@H](C)CCC/C(C)=C/CC[C@@]1(C)O (some centres undefined)	21.8 µM
Cc1ccc([N+](=O)[O-])cc1S(=O)(=O)Nc1ccc(C2=NNC(c3cccs3)C2)cc1 (centres undefined)	> 100 µM
CC(NC(=O)C(N)CC(=O)O)NC(=O)N1CCOCC1 (centres undefined)	> 100 µM

###

system: TK-10 renal; test: NCI tumour cell line growth inhibition, 48 h
Where a SMILES comes first, the peptide text is derived from it. [ ]: non-standard residue; d: D form. The star is where a group is joined. ξ: configuration not given here. Propanoyl(3-(4-MeO-Ph)) = COc1ccc(CCC(=O)*)cc1; Thr(3ξ) = CC(O)[C@H](N)C(=O)O; dNMeL = CN[C@H](CC(C)C)C(=O)O; OBn = c1ccc(CO*)cc1; ξLac = CC(O)C(=O)O

compound	sign qualifier	TGI (µM)
O=c1c(O)c(-c2cc(O)c(O)cc2O)oc2cc(O)c(C3OC(CO)C(O)C(O)C3O)c(O)c12 (centres undefined)	>	100
N=C1C(c2nc3ccccc3s2)=C(O)CN1c1ccc(Cl)cc1Cl	=	42.8
O=C(O[C@H]1CN[C@H](C#Cc2cc3ncnc(Nc4ccc(OCc5cccc(F)c5)c(Cl)c4)c3s2)C1)N1CCOCC1	=	8.41
COc1ccc(CCC(=O)OC(C)[C@H](NC(=O)[C@@H](CC(C)C)N(C)C(=O)[C@@H]2CCCN2C(=O)C(C)O)C(=O)OCc2ccccc2)cc1 (some centres undefined) (H-[ξLac]P[dNMeL][Thr(3ξ)](Propanoyl(3-(4-MeO-Ph)))-OBn)	>	100
